MEASUREMENT PROTOCOL: in vivo
COND: Wistar, rat, in vivo, sc, 0.1 mg/kg
READOUT KIND: bioavailability (%)
Your answer should be a plain number; it is taken to be in %.

-- ask Requested field: bioavailability. Item: CCNC(=O)[C@@H]1CCCN1C(=O)[C@H](CCCNC(=N)N)NC(=O)[C@H](CC(C)C)NC(=O)[C@@H](CC(C)C)NC(=O)[C@H](Cc1ccc(O)cc1)NC(=O)[C@H](CO)NC(=O)[C@H](Cc1c[nH]c2ccccc12)NC(=O)[C@H](Cc1c[nH]cn1)NC(=O)[C@@H]1CCC(=O)N1 [leuprolide]
-- reply 50.6
